- measured.target: pooled human IgG
measured.metric: Enzyme Activity Endpoint Assay: Fab′2 (ng/µL)
Answer with a number only, understood to be in ng/µL.

State its Enzyme Activity Endpoint Assay: Fab′2 for this protein: PRT-286 (protein) MVTSVWTKGVTPPAKFTQGEDVFHAPYDANQGWYDITKTFNGKDDLLCGAATAGNMLHWWFDQNKEKIEAYLKKHPDKQKIMFGDQELLDVRKVINTKGDQTNSELFNYFRDKAFPNLSARRIGVMPDLVLDMFINGYYLNVYKTQTTDVNRTYQEKDRRGGIFDAVFTRGDQSKLLTSRHDFKEKNLKEISDLIKKELTEGKALGLSHTYANVRISHVINLWGADFDSNGNLKAIYVTDSDSNASIGMKKYFVGVNSSGKVAISAKEIKEDNIGAQVLGLFTLSTGQDSWNQTN
650
